# Test Target: isolated recombinant JAK1 kinase domain (Homo sapiens)
# Construct: isolated recombinant JAK1 and JAK2 kinase domain
# Sequence (P23458 875-1153 limits assumed): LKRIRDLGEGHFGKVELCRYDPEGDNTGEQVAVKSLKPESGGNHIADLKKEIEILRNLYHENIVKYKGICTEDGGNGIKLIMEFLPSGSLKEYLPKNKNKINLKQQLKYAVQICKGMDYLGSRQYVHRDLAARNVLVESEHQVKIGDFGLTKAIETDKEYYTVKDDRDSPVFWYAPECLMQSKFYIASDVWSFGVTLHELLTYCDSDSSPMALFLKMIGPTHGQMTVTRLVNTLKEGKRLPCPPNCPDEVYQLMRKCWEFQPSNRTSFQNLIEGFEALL
# Assay Procedure: JAK enzyme assay, JAK1 kinase domain (Caliper LabChip)
# Condition Set: 1.5 nM JAK1, ATP 25 μM, Morrison tight binding model
pKi: −log10 of the molar value.
Readout Label: pKi

Known pKi results, listed for orientation:
O=C(Nc1cn(C2CCNC2=O)nc1-c1cc(Cl)ccc1OC(F)F)c1cnn2cccnc12 (single isomer, unassigned); 8.74
O=C(Nc1cn(C2CCCCC2=O)nc1-c1cc(Cl)ccc1OC(F)F)c1cnn2cccnc12 (racemic); 8.96
O=C(Nc1cn(C2CCOC2=O)nc1-c1cc(Cl)ccc1OC(F)F)c1cnn2cccnc12 (racemic) [Example 25]; 9.43
O=C(Nc1cn(C2CCN(CCN3CCOCC3)C2=O)nc1-c1cc(Cl)ccc1OC(F)F)c1cnn2cccnc12 (single isomer, unassigned) [Example 14]; 8.92
O=C(Nc1cn(C2CCOC2=O)nc1-c1cc(SC(F)F)ccc1OC(F)F)c1cnn2cccnc12 (single isomer, unassigned) [Example 31]; 9.15
CN1CC[C@@H](n2cc(NC(=O)c3cnn4cccnc34)c(-c3cc(Cl)ccc3OC(F)F)n2)C1=O (stereo in doubt); 8.60
O=C(Nc1cn(C2CCOC2=O)nc1-c1cc(OC(F)F)ccc1OC(F)F)c1cnn2cccnc12 (single isomer, unassigned) [Example 36]; 9.19
O=C(Nc1cn(C2CCN(C3COC3)C2=O)nc1-c1cc(Cl)ccc1OC(F)F)c1cnn2cccnc12 (single isomer, unassigned) [Example 23]; 9.29

A = O=C(Nc1cn(C2CCOC2=O)nc1-c1cc(OC(F)F)ccc1OC(F)F)c1cnn2cccnc12 (single isomer, unassigned) [Example 37]
B = CSc1ccc(OC(F)F)c(-c2nn(C3CCN(C)C3=O)cc2NC(=O)c2cnn3cccnc23)c1 (single isomer, unassigned) [Example 7]
In terms of reported pKi, does A or B have the smaller number? Answer format: the label of the selected item.
B
(B: 9.08, A: 9.59)

I = O=C(Nc1cn(C2CCOC2=O)nc1-c1cc(SC(F)F)ccc1OC(F)F)c1cnn2cccnc12 (single isomer, unassigned) [Example 32]
II = CN1CCN(C(=O)CN2CCC(n3cc(NC(=O)c4cnn5cccnc45)c(-c4cc(Cl)ccc4OC(F)F)n3)C2=O)CC1 (single isomer, unassigned) [Example 17]
III = CS(=O)(=O)c1ccc(OC(F)F)c(-c2nn(C3CCOC3=O)cc2NC(=O)c2cnn3cccnc23)c1 (single isomer, unassigned) [Example 40]
IV = O=C(Nc1cn(C2CCN(CCN3CCOCC3)C2=O)nc1-c1cc(Cl)ccc1OC(F)F)c1cnn2cccnc12 (single isomer, unassigned) [Example 15]
Order each entry by recorded pKi, climbing from the minimum. Hello, could you send the labels back in the order asked? Thank you.
IV, II, III, I
(IV: 8.36, II: 8.59, III: 8.96, I: 9.77)

a = CN1CCCC(n2cc(NC(=O)c3cnn4cccnc34)c(-c3cc(Cl)ccc3OC(F)F)n2)C1=O (single isomer, unassigned) [Example 21]
b = CSc1ccc(OC(F)F)c(-c2nn(C3CCOC3=O)cc2NC(=O)c2cnn3cccnc23)c1 (single isomer, unassigned) [Example 30]
Response body: label of entry with the larger pKi; valid values a , b . Answer format: the label of the selected item.
b
(b: 9.82, a: 8.39)

a = CN1CCC(n2cc(NC(=O)c3cnn4cccnc34)c(-c3cc(OC(F)F)ccc3OC(F)F)n2)C1=O (single isomer, unassigned) [Example 8]
b = CN1CCC(n2cc(NC(=O)c3cnn4cccnc34)c(-c3cc4c(cc3OC(F)F)NCCO4)n2)C1=O (single isomer, unassigned) [Example 11]
c = O=C(Nc1cn(C2CCN(C3COC3)C2=O)nc1-c1cc(Cl)ccc1OC(F)F)c1cnn2cccnc12 (single isomer, unassigned) [Example 24]
List items by pKi in falling order. Hello, could you send the labels back in the order asked? Thank you.
a, b, c
(a: 9.52, b: 8.92, c: 8.41)
